# Test system: XIP peptide (Xip251-270) binding
# assay_procedure: XIP fragment 251-270 binding compounds – biochemical, small-molecule microarray, fluorescence 635/667 nm, 0.1 µg/mL protein, primary screen (AID 1182)
# cond: fluorescent protein binding, 635 nm, higher = more signal, called active from +8 up or from −8 down
measure_name: composite z-score
Answers are plain numbers.

Give one value of composite z-score per listed compound.
1. CN(C)CCCNC(=O)[C@@]1(C)c2ccccc2C(=O)N(Cc2ccc(OC(F)(F)F)cc2)[C@H]1c1ccc(CO)cc1
2. O=C1O[C@@H](c2ccccc2)[C@@H](c2ccccc2)N2[C@@H](c3ccccc3OCCO)[C@]3(C(=O)Nc4ccc(C#CCCO)cc43)[C@@H](C(=O)NC[C@H](O)c3ccccc3)[C@H]12
3. O=C(N1CCOCC1)[C@@]1(Cc2ccccc2)COC(c2ccc(OCCCO)cc2)=N1
4. COC(=O)[C@@]1(Cc2ccc(F)cc2)[C@H]2c3cc(C(=O)N4CCCC4)n(CCc4ccccn4)c3C[C@H]2CN1C(=O)c1ccccc1
5. O=C1O[C@@H](c2ccccc2)[C@@H](c2ccccc2)N2[C@@H](c3ccc(OCCO)cc3)[C@]3(C(=O)Nc4ccc(C#CCCO)cc43)[C@@H](C(=O)O)[C@H]12
6. COC(=O)[C@@]1(Cc2ccc(OC)cc2)[C@H]2c3cc(C(=O)N4CCCC4)n(Cc4c(CO)[nH]cc(C)c4=O)c3C[C@H]2CN1C(=O)c1ccccc1

**A:**
0.784
0.798
0.509
0.405
0.901
1.1

###

# assay_procedure: JC-1 mitochondrial potential readout, lung cancer cells – cell-based, A549, JC-1 fluorescence, basal, 24 h, 100 nL, profiling panel (AID 1138);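 also: A549 lung adenocarcinoma cells under basal conditions with no added stimulus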
# cond: higher = more signal
Assign z-score to each entry below.
Numbers only.

Hi team, please reply with z-score for each item in this list.
1. CCCCCC1=C2CNC(CC(C)C)(C(=O)OC)C=C2C(C)C1=O (stereo not drawn)
2. [N-]=[N+]=Nc1ccccc1[C@@H]1OC(c2ccc(OCCCO)cc2)=N[C@]1(CCS(=O)(=O)c1ccccc1)C(=O)NCC(O)CO (stereo partly drawn)
3. C=CCOC(=O)[C@H]1[C@@H]2C(=O)O[C@@H](c3ccccc3)[C@@H](c3ccccc3)N2[C@@H](c2ccc(OCCOC(=O)[C@H]3C[C@H]4C(=O)N[C@@H](CC(C)C)C(=O)N4[C@H]3c3ccc(O)cc3)cc2)[C@]12C(=O)Nc1ccccc12

**A:**
0.326
-0.298
-1.48

###

# assay_procedure: small molecules captured by biotinylated probe aFST – biochemical, small-molecule microarray, fluorescence 635/667, stem cell growth factor project, primary screen (AID 1086);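 also: score merges 667 nm fluorescence with signal-to-noise of each printed compound spot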
# cond: higher = more signal
For each record, write down the corresponding composite z-score.

- NC(=O)N1C(=O)C2C(C1=O)C1C=C(CCCO)C2C(c2ccc(CN3CCCC3)cc2)N1Cc1cc2c(cc1Br)OCO2 (centres undefined): -0.369
- NC(=O)N1C(=O)C2C(C1=O)C1C=C(CCCO)C2C(C2CC2)N1Cc1sc2ccccc2c1Cl (centres undefined): 0.115
- COCCCNC(=O)[C@@]1(CCC(=O)OC(C)(C)C)COC(c2ccc(OCCCO)cc2)=N1: 0.579

Please state, for each entry, its recorded composite z-score.
1. C[N+](C)(C)CCCC[C@@H]1NC(=O)[C@@H]2C[C@H](C(=O)NCc3ccc(F)cc3)[C@H](c3ccc(O)cc3)N2C1=O
2. COC(=O)[C@H](Cc1ccccc1)N1CC2=CCCC=C[C@@H]2[C@H]1[C@H](O)Cc1ccccc1

**A:**
1: -0.936; 2: 0.0599

Respectfully, I request composite z-score for each entry included below.
1. C=CCOC(=O)[C@@H]1[C@H]2C(=O)O[C@H](c3ccccc3)[C@H](c3ccccc3)N2[C@H](c2ccc(OCCOC(=O)[C@H]3C[C@H]4C(=O)NCC(=O)N4[C@H]3c3cccc(OCCO)c3)cc2)[C@@]12C(=O)Nc1ccc(I)cc12
2. CCOC(=O)C1=CC[C@@H](c2ccc(OC)cc2)N(S(=O)(=O)c2ccc(C)cc2)[C@H]1c1ccc(C)cc1
3. CCOC(=O)C[C@H]1[C@H](OC(=O)Cc2ccc3c(c2)OCO3)[C@@H](NC(=O)c2ccc3ccccc3n2)c2cc(OCCCO)ccc2N1C(=O)Cc1ccc(OC)cc1
4. COc1ccc([Si](C)(C)[C@H]2[C@H](CC(=O)N3CCC[C@H]3CO)O[C@@]3(C(=O)N(Cc4ccc(N5CCCCC5=O)cc4)c4ccccc43)[C@@H]2C)cc1

**A:**
0.275
1.11
0.447
0.536

###

# test_target: Torsin-1A (Homo sapiens)
# assay_procedure: torsin A mutant lysate binding on microarrays – cell lysate, small-molecule microarray, COS7 lysate, 635/667 nm fluorescence, primary screen (AID 1150);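 also: score pools 667 nm emission and signal to noise measuring lysate protein binding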
# cond: COS7 hTOR1A mutant lysate, 635 nm fluorescence, higher = more signal
// Condition not met strictly below 0.7 in composite z-score; Condition met otherwise

- COC(=O)[C@@]1(Cc2ccc(F)cc2)[C@H]2c3cc(C(=O)N(C)C)n(CCc4ccc(O)c(O)c4)c3C[C@H]2CN1C(=O)c1ccccc1: Condition met
- C=CCOC(=O)[C@@H]1[C@H]2C(=O)O[C@H](c3ccccc3)[C@H](c3ccccc3)N2[C@H](c2ccc(OCCOC(=O)[C@H]3C[C@H]4C(=O)N[C@@H](CCCCN(C)C)C(=O)N4[C@H]3c3ccc(O)cc3)cc2)[C@@]12C(=O)Nc1ccc(I)cc12: Condition met
- COc1ccc([Si](C)(C)[C@@H]2[C@@H](CC(=O)N(CCO)Cc3ccccc3)O[C@]3(C(=O)N(Cc4ccc(I)cc4)c4ccccc43)[C@H]2C)cc1: Condition not met
- COC(=O)[C@@]1(Cc2ccc(F)cc2)[C@H]2c3cc(C(=O)N(C)C)n(C)c3C[C@H]2CN1C(=O)c1ccccc1: Condition met
- COc1ccc(C(O)C2C=CC3C(=O)N(C)C(=O)C3N2N(c2ccccc2)c2ccccc2)cc1 (stereo not drawn): Condition not met
- COCCOC(=O)N1C(=O)[C@@]2(c3cc(C#CCCO)ccc31)[C@H](c1ccccc1OCCO)N1[C@H](c3ccccc3)[C@H](c3ccccc3)OC(=O)[C@H]1[C@@H]2C(N)=O: Condition not met
- CC(C)NC(=O)[C@@H]1c2ccccc2C(=O)N(Cc2ccc(OC(F)(F)F)cc2)[C@H]1c1ccc(CO)cc1: Condition not met
- C=CCNC(=O)[C@@H]1[C@H]2C(=O)O[C@H](c3ccccc3)[C@H](c3ccccc3)N2[C@H](c2ccc(OCCO)cc2)[C@@]12C(=O)Nc1ccc(C#CC3(O)CCCCCC3)cc12: Condition met

**Q:** I'd appreciate it if you could say whether COC(=O)C(CC#Cc1ccc2c(c1)[C@]1(C(=O)N2)[C@H](C(=O)N2CCc3cc(OC)c(OC)cc3C2)[C@H]2C(=O)O[C@H](c3ccccc3)[C@H](c3ccccc3)N2[C@@H]1c1ccccc1OCCO)C(=O)OC has composite z-score at least equal to 0.7.
**A:** Condition met

**Q:** Does composite z-score meet or surpass 0.7 for CN(C)C(=O)[C@]1(Cc2ccccc2)N=C(c2ccc(OCCCO)cc2)O[C@@H]1c1ccccc1CN=[N+]=[N-] ?
**A:** Condition met

**Q:** composite z-score >= 0.7 for NC(=O)N1C(=O)C2C(C1=O)C1C=C(CCCO)C2C(c2ccc(CN3CCCC3)cc2)N1Cc1cc2c(cc1Br)OCO2 (stereo not drawn) ?
**A:** Condition not met

**Q:** Quick check, composite z-score >= 0.7? C[N+](C)(C)CCCCNC(=O)[C@H]1C[C@H]2C(=O)N[C@@H](Cc3ccccc3)C(=O)N2[C@H]1c1cccc(OCCO)c1
**A:** Condition not met

###

Would you mind telling me the reported composite z-score of each entry?
# test_target: Fibroblast growth factor 2 (Homo sapiens) (UniProt P09038)
# Sequence (P09038 whole entry, looked up): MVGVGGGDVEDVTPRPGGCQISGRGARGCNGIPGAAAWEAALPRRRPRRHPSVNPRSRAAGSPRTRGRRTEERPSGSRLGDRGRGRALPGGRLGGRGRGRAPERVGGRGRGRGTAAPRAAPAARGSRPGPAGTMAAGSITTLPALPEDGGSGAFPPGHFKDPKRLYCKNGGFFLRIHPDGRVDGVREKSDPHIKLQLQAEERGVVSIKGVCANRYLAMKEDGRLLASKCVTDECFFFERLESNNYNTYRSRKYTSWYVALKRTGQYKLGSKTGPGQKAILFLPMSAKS
# assay_procedure: basic fibroblast growth factor binding to printed compounds – biochemical, small-molecule microarray, 635/667 nm fluorescence, primary screen (AID 1133)
# cond: FGF2, fluorescence 635/667, higher = more signal
Answers are plain numbers.

# count of solved cases: 3
• CC(C)(C)N1CC=CC23O[C@@H]4/C=C\CCCOC(=O)C4[C@H]2C(=O)N(CCCO)[C@@H]3C1=O (some centres not stated) = -0.811
• CCCC[C@H]1C[C@@H]1[C@@H]1N(C(C)=O)[C@H](c2cccc(OC)c2)CC12CC2 = -0.532
• CN(C)CCCC[C@@H]1NC(=O)[C@H]2C[C@@H](C(=O)O)[C@@H](c3ccc(O)cc3)N2C1=O = 1.83

Return reported composite z-score values for all items listed beneath this line.
1. COC(=O)[C@@]1(Cc2ccc(F)cc2)[C@H]2c3cc(C(=O)N(C)C)n(C)c3C[C@H]2CN1C(=O)c1ccccc1
2. CN(C)C(=O)[C@@]1(Cc2ccccc2CN=[N+]=[N-])COC(c2ccc(OCCCO)cc2)=N1
3. C=C(C)[C@@H]1CC=C(C(O)C2C=CC3C(=O)N(C)C(=O)C3N2Nc2ccc([N+](=O)[O-])cc2[N+](=O)[O-])CC1 (some centres not stated)
4. COCCOC(=O)N1C(=O)[C@@]2(c3cc(C#CCC(C(=O)OC)C(=O)OC)ccc31)[C@H](C(N)=O)[C@H]1C(=O)O[C@H](c3ccccc3)[C@H](c3ccccc3)N1[C@@H]2c1ccc(O)cc1

**A:**
1: 0.263; 2: -0.572; 3: -0.0675; 4: 0.468
